Test: Toxicokinetics, 14-day intranasal study in rats (Study 700041)
Format: in vivo
Settings: male, Sprague Dawley, rat, plasma, inhaled or intranasal, 5 mg/kg/day, Day 14, Male, read-out: AUCINF_obs
recorded-metric: AUC(0-inf)

{"chemical-smiles": "COc1ccc2[nH]cc(CCN(C)C)c2c1", "recorded-metric": "AUC(0-inf)", "reading": "115 ng·h/mL"}

* * *

Experiment: Summary of clinical observations in applicant-sponsored dog studies
Format: in vivo
Conditions: beagle, in vivo, other: intranasal instillation; Dog; HED 50 mg; read-out: NOAEL determined in the 14-day toxicology studies
recorded-metric: NOAEL at 14 days

{"chemical-smiles": "COc1ccc2[nH]cc(CCN(C)C)c2c1", "recorded-metric": "NOAEL at 14 days", "reading": "1.5 mg/kg"}
